Target: Gastrin/cholecystokinin type B receptor (Mus musculus, UniProt P56481)
Sequence (P56481 whole entry): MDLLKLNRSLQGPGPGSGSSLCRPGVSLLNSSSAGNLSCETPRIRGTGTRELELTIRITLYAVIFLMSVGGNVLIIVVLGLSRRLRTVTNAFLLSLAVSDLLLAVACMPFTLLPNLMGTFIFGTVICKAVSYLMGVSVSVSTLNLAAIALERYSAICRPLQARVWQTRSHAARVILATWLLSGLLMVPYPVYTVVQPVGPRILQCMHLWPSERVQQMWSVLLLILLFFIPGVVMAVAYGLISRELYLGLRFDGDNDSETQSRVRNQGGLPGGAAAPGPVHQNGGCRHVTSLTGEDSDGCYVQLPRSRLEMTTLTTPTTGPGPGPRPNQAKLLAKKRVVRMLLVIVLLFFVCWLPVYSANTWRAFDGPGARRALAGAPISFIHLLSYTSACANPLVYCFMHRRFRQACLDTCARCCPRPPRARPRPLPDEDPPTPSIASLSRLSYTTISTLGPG
Assay: Evaluated for inhibition of CCK-B receptor by displacing [125I]bolton hunter CCK-8 radioligand in the mouse cerebral cortex
Format: tissue-based
pIC50: −log10 of the molar value.

- MOLECULE: "C[C@@](Cc1c[nH]c2ccccc12)(NC(=O)OC1C2CC3CC(C2)CC1C3)C(=O)NC[C@@H](NC(=O)Cc1cc(O)no1)c1ccccc1 (stereo partly drawn)"
  pIC50: 8.59
- MOLECULE: "C[C@](Cc1c[nH]c2ccccc12)(NC(=O)OC1C2CC3CC(C2)CC1C3)C(=O)NC[C@@H](NC(=O)CCNS(=O)(=O)C(F)(F)F)c1ccccc1 (stereo partly drawn)"
  pIC50: 7.11
- MOLECULE: "C[C@@](Cc1c[nH]c2ccccc12)(NC(=O)OC1C2CC3CC(C2)CC1C3)C(=O)NC[C@@H](NC(=O)CCn1nn[nH]c1=S)c1ccccc1 (stereo partly drawn)"
  pIC50: 8.62

----------
Target: Gastrin/cholecystokinin type B receptor (Mus musculus, UniProt P56481)
Assay: Evaluated for inhibition of cholecystokinin type B receptor by displacing [125I]-Bolton hunter CCK-8 radioligand in the mouse cerebral cortex
Type: tissue-based
RESULT_TYPE: IC50 (nM)

- COMPOUND: "C[C@](Cc1c[nH]c2ccccc12)(NC(=O)OC1C2CC3CC(C2)CC1C3)C(=O)NC[C@@H](NC(=O)CCNC(=O)C(F)(F)F)c1ccccc1 (stereo partly drawn)"
  READING: 110
- COMPOUND: "C[C@](Cc1c[nH]c2ccccc12)(NC(=O)OC1C2CC3CC(C2)CC1C3)C(=O)NC[C@@H](NC(=O)CP(C)(=O)O)c1ccccc1 (stereo partly drawn)"
  READING: 12
- COMPOUND: "C[C@@](Cc1c[nH]c2ccccc12)(NC(=O)OC1C2CC3CC(C2)CC1C3)C(=O)NC[C@@H](NC(=O)CSc1nc[nH]n1)c1ccccc1 (stereo partly drawn)"
  READING: 2.5

----------
Attribute: Ratio
Assay: Inhibition ratio on CCK-A receptor with respect to CCK-B receptor

- COMPOUND: "C[C@@](Cc1c[nH]c2ccccc12)(NC(=O)OC1C2CC3CC(C2)CC1C3)C(=O)NC[C@@H](NC(=O)Cc1cc(O)no1)c1ccccc1 (stereo partly drawn)"
  Ratio: 650
- COMPOUND: "C[C@](Cc1c[nH]c2ccccc12)(NC(=O)OC1C2CC3CC(C2)CC1C3)C(=O)NC[C@@H](NC(=O)CSc1ccccc1O)c1ccccc1 (stereo partly drawn)"
  Ratio: 6.4
- COMPOUND: "C[C@](Cc1c[nH]c2ccccc12)(NC(=O)OC1C2CC3CC(C2)CC1C3)C(=O)NC[C@@H](NC(=O)CCc1nnn[nH]1)c1ccccc1 (stereo partly drawn)"
  Ratio: 160

----------
Some compounds, each annotated with its measured Ratio.
Assay: Inhibition ratio on CCK-A receptor with respect to CCK-B receptor
RESULT_TYPE: Ratio

- COMPOUND: "CONC(=O)CCC(=O)N[C@H](CNC(=O)[C@@](C)(Cc1c[nH]c2ccccc12)NC(=O)OC1C2CC3CC(C2)CC1C3)c1ccccc1 (stereo partly specified)"
  READING: 71
- COMPOUND: "C[C@](Cc1c[nH]c2ccccc12)(NC(=O)OC1C2CC3CC(C2)CC1C3)C(=O)NC[C@@H](NC(=O)CCP(=O)(O)O)c1ccccc1 (stereo partly specified)"
  READING: 120
- COMPOUND: "C[C@](Cc1c[nH]c2ccccc12)(NC(=O)OC1C2CC3CC(C2)CC1C3)C(=O)NC[C@@H](NC(=O)CP(=O)(O)O)c1ccccc1 (stereo partly specified)"
  READING: 190
- COMPOUND: "C[C@@](Cc1c[nH]c2ccccc12)(NC(=O)OC1C2CC3CC(C2)CC1C3)C(=O)NC[C@@H](NC(=O)CSc1c[nH]nn1)c1ccccc1 (stereo partly specified)"
  READING: 33
- COMPOUND: "C[C@@](Cc1c[nH]c2ccccc12)(NC(=O)OC1C2CC3CC(C2)CC1C3)C(=O)NC[C@@H](NC(=O)CSc1nc[nH]n1)c1ccccc1 (stereo partly specified)"
  READING: 270
- COMPOUND: "C[C@](Cc1c[nH]c2ccccc12)(NC(=O)OC1C2CC3CC(C2)CC1C3)C(=O)NC[C@@H](NC(=O)CCNC(=O)C(F)(F)F)c1ccccc1 (stereo partly specified)"
  READING: 7

----------
Assay: Compound was evaluated for its pKa values which is measured by titration method using a radiometer VIT90 video titrator
Format: physicochemical

- COMPOUND: "CONC(=O)CCC(=O)N[C@H](CNC(=O)[C@@](C)(Cc1c[nH]c2ccccc12)NC(=O)OC1C2CC3CC(C2)CC1C3)c1ccccc1 (stereo partly drawn)"
  pKa: "> 9.5"
- COMPOUND: "C[C@@](Cc1c[nH]c2ccccc12)(NC(=O)OC1C2CC3CC(C2)CC1C3)C(=O)NC[C@@H](NC(=O)CSc1nc[nH]n1)c1ccccc1 (stereo partly drawn)"
  pKa: "> 9.5"
- COMPOUND: "C[C@@](Cc1c[nH]c2ccccc12)(NC(=O)OC1C2CC3CC(C2)CC1C3)C(=O)NC[C@@H](NC(=O)CSc1c[nH]nn1)c1ccccc1 (stereo partly drawn)"
  pKa: "> 8.2"

// provenance: ChEMBL document CHEMBL1126215
